tested on: MIA PaCa-2; conditions: OFD1 knockdown: no (no doxycycline)
Quick list: IC50 cell viability per entry.
readout: IC50 cell viability (µM)

- CC[C@H](NC(=O)[C@H](C)NC)C(=O)N1C[C@@H](O)C[C@H]1Cc1c(-c2[nH]c3cc(F)ccc3c2C[C@@H]2C[C@H](O)CN2C(=O)[C@H](CC)NC(=O)[C@H](C)NC)[nH]c2cc(F)ccc12: 21.9
- O=c1sn(-c2cccc3ccccc23)c(=O)n1Cc1ccccc1: 17.9
- Cn1nnc2c(C(N)=O)ncn2c1=O: 12
- CC(C)(C#N)c1cc(Cn2cncn2)cc(C(C)(C)C#N)c1: 47.1
- CC(=O)O[C@]1(C(C)=O)CC[C@H]2[C@@H]3C[C@H](C)C4=CC(=O)CC[C@]4(C)[C@H]3CC[C@@]21C: 10.2

----------
system: MIA PaCa-2; settings: OFD1 knockdown: no (no doxycycline)
readout: IC50 cell viability (µM)

* C#Cc1cccc(Nc2ncnc3cc(OCCOC)c(OCCOC)cc23)c1 [S1023] | 59.1
* Nc1nc(F)nc2c1ncn2[C@@H]1O[C@H](CO)[C@@H](O)[C@@H]1O [S1491] | 59
* O=S(=O)(O)CCS [S1735] | 19.2
* Cc1ccc(NC(=O)c2ccc(CN3CCN(C)CC3)cc2)cc1Nc1nccc(-c2cccnc2)n1 [S2475] | 6.98
* CC(=O)Nc1cccc(-n2c(=O)n(C3CC3)c(=O)c3c(Nc4ccc(I)cc4F)n(C)c(=O)c(C)c32)c1 [S2673] | 23.9
* COc1cccc2c1C(=O)c1c(O)c3c(c(O)c1C2=O)C[C@@](O)(C(=O)CO)C[C@@H]3O[C@H]1C[C@H](N)[C@@H](O)[C@H](C)O1 [S1223] | 0.63
* Oc1ncnc2[nH]ncc12 [S1630] | 13.5
* Cc1ccc(NC(=O)c2ccc(CN3CCN(C)CC3)cc2)cc1Nc1nc(-c2cccnc2)cs1 [S1064] | 68.8
* Cn1c(CCCC(=O)O)nc2cc(N(CCCl)CCCl)ccc21 [S1212] | 15.8
* O=C1c2c(O)ccc(O)c2C(=O)c2c(NCCNCCO)ccc(NCCNCCO)c21 [S2485] | 3.55
* CC(C)n1c(/C=C/C(O)CC(O)CC(=O)O)c(-c2ccc(F)cc2)c2ccccc21 (stereo not given) [S1909] | 8.13
* CC[C@H](Nc1ncnc2[nH]cnc12)c1nc2cccc(F)c2c(=O)n1-c1ccccc1 [S2226] | 22.7
* CN(CCOc1ccc(CC2SC(=O)NC2=O)cc1)c1ccccn1 (stereo not given) [S2556] | 8.62
* C=C(c1ccc(C(=O)O)cc1)c1cc2c(cc1C)C(C)(C)CCC2(C)C [S2098] | 19.7
* CS(=O)(=O)OCCCCOS(C)(=O)=O [S1692] | 11.6
* O=c1[nH]c(=O)n(C2CCCO2)cc1F (stereo not given) [S1300] | 48.4
* CCN(CC)CCNC(=O)c1c(C)[nH]c(/C=C2\C(=O)Nc3ccc(F)cc32)c1C [S1042] | 2.85
* CCOc1nc2cccc(C(=O)O)c2n1Cc1ccc(-c2ccccc2-c2nnn[nH]2)cc1 [S1578] | 1.56
* CN1CCN(C2=Nc3cc(Cl)ccc3Nc3ccccc32)CC1 [S2459] | 18.9
* C/C(=C\c1csc(C)n1)[C@@H]1C[C@@H]2O[C@]2(C)CCC[C@H](C)[C@H](O)[C@@H](C)C(=O)C(C)(C)[C@@H](O)CC(=O)O1 [S1364] | 0.76
* CN(C)CCOc1ccc(/C(=C(/CCCl)c2ccccc2)c2ccccc2)cc1 [S1776] | 47.6
* CCCCc1nc2cc(/C=C/C(=O)NO)ccc2n1CCN(CC)CC [S1515] | 5.47
* Nc1ccccc1NC(=O)c1ccc(CNC(=O)OCc2cccnc2)cc1 [S1053] | 11
* C[C@]1(O)C[C@@H](c2nc(-c3ccc4ccc(-c5ccccc5)nc4c3)c3c(N)nccn32)C1 [S1091] | 48.3
* CN1CCN(CCOc2cc(OC3CCOCC3)c3c(Nc4c(Cl)ccc5c4OCO5)ncnc3c2)CC1 [S1006] | 7.48
* CC(=O)OCC(=O)[C@@]1(O)[C@H](C)C[C@H]2[C@@H]3CCC4=CC(=O)C=C[C@]4(C)[C@@]3(F)[C@@H](O)C[C@@]21C [S3124] | 51.2
* CCCCCOC(=O)Nc1nc(=O)n([C@@H]2O[C@H](C)[C@@H](O)[C@H]2O)cc1F [S1156] | 34
* CCN(CC)C(=S)SSC(=S)N(CC)CC [S1680] | 46.3
* Cc1cc(Nc2cc(N3CCN(C)CC3)nc(Sc3ccc(NC(=O)C4CC4)cc3)n2)n[nH]1 [S1048] | 22.9
* COc1cc2/c(=N/c3ccc(Br)cc3F)nc[nH]c2cc1OCC1CCN(C)CC1 [S1046] | 5.87
* COCCCOc1cc(C[C@@H](C[C@H](N)[C@@H](O)C[C@H](C(=O)NCC(C)(C)C(N)=O)C(C)C)C(C)C)ccc1OC [S2199] | 4.3
* Cc1ccc(-c2cc(C(F)(F)F)nn2-c2ccc(S(N)(=O)=O)cc2)cc1 [S1261] | 25.2
* Nc1nc(Cl)nc2c1ncn2[C@H]1C[C@H](O)[C@@H](CO)O1 [S1199] | 55.1
* COc1cc([C@@H]2c3cc4c(cc3[C@@H](O[C@@H]3O[C@@H]5CO[C@@H](C)O[C@H]5[C@H](O)[C@H]3O)[C@H]3COC(=O)[C@H]23)OCO4)cc(OC)c1O [S1225] | 2.31
* CCN(CCO)CCCOc1ccc2c(Nc3cc(CC(=O)Nc4cccc(F)c4)[nH]n3)ncnc2c1 [S1147] | 16.7

----------
Quick list: IC50 cell viability per entry.
tested on: MIA PaCa-2; conditions: OFD1 knockdown: yes (Tet-on shOFD1, 100 ng/mL doxycycline)
readout: IC50 cell viability (µM)

* C[C@@H](Oc1cc(-c2cnn(C3CCNCC3)c2)cnc1N)c1c(Cl)ccc(F)c1Cl | 1.39
* Cn1nnc2c(C(N)=O)ncn2c1=O | 11.3
* N#CC[C@H](C1CCCC1)n1cc(-c2ncnc3[nH]ccc23)cn1 [S1378] | 68.4
* COc1cc(Nc2ncc3c(n2)-c2ccc(Cl)cc2C(c2c(F)cccc2OC)=NC3)ccc1C(=O)O | 10.5
* Cc1ccc(O)c([C@H](CCN(C(C)C)C(C)C)c2ccccc2)c1 | 9.8
* O=C1c2c(O)ccc(O)c2C(=O)c2c(NCCNCCO)ccc(NCCNCCO)c21 | 3.77
* C=C(c1ccc(C(=O)O)cc1)c1cc2c(cc1C)C(C)(C)CCC2(C)C | 21.3
* Cc1cnc(Nc2ccc(OCCN3CCCC3)cc2)nc1Nc1cccc(S(=O)(=O)NC(C)(C)C)c1 | 13.5
* CC1(C)CCC(CN2CCN(c3ccc(C(=O)NS(=O)(=O)c4ccc(NCC5CCOCC5)c([N+](=O)[O-])c4)c(Oc4cnc5[nH]ccc5c4)c3)CC2)=C(c2ccc(Cl)cc2)C1 | 12.1
* O=c1[nH]c(=O)n(C2CCCO2)cc1F (stereo unspecified) | 43.1
* Nc1cccc2c1C(=O)N(C1CCC(=O)NC1=O)C2=O (stereo unspecified) | 15.5
* CCC(C)n1ncn(-c2ccc(N3CCN(c4ccc(OCC5COC(Cn6cncn6)(c6ccc(Cl)cc6Cl)O5)cc4)CC3)cc2)c1=O (stereo unspecified) | 23
* CCN(CC)C(=O)/C(C#N)=C/c1cc(O)c(O)c([N+](=O)[O-])c1 | 3.44
* Cc1ccc(-n2nc(C(C)(C)C)cc2NC(=O)Nc2ccc(OCCN3CCOCC3)c3ccccc23)cc1 | 83.8
* COc1cc2nccc(Oc3ccc(NC(=O)C4(C(=O)Nc5ccc(F)cc5)CC4)cc3)c2cc1OC | 4.97
* CS(=O)(=O)CCNCc1ccc(-c2ccc3ncnc(Nc4ccc(OCc5cccc(F)c5)c(Cl)c4)c3c2)o1 [S2111] | 8.03
* CS(=O)(=O)OCCCCOS(C)(=O)=O | 12.1
* CN(C)/N=N/c1[nH]cnc1C(N)=O | 51.9
* CC(C)(C#N)c1cc(Cn2cncn2)cc(C(C)(C)C#N)c1 | 59.2
* CC(C)OC(=O)C(C(=O)OC(C)C)=C1SC=CS1 | 36.1
* CC(=O)Nc1cccc(-n2c(=O)n(C3CC3)c(=O)c3c(Nc4ccc(I)cc4F)n(C)c(=O)c(C)c32)c1 | 21.9
* CN1CC(=O)N2[C@H](c3ccc4c(c3)OCO4)c3[nH]c4ccccc4c3C[C@@H]2C1=O | 23.5
* CNC(=O)c1cc(Oc2ccc(NC(=O)Nc3ccc(Cl)c(C(F)(F)F)c3)cc2)ccn1 | 7.5
* Cc1nc(Nc2ncc(C(=O)Nc3c(C)cccc3Cl)s2)cc(N2CCN(CCO)CC2)n1 | 0.61
* O=c1sn(-c2cccc3ccccc23)c(=O)n1Cc1ccccc1 | 17.7
* CC(C)c1cc(-c2n[nH]c(=O)n2-c2ccc3c(ccn3C)c2)c(O)cc1O | 2.01
* O=c1[nH]c(=O)n([C@H]2C[C@H](O)[C@@H](CO)O2)cc1F | 11.4
* CNC(=O)c1ccc(N2C(=S)N(c3ccc(C#N)c(C(F)(F)F)c3)C(=O)C2(C)C)cc1F | 27.8
* O=NN(CCCl)C(=O)NC1CCCCC1 | 16.9
* O=S(=O)(O)CCSSCCS(=O)(=O)O | 70.3
* COCC[n+]1c2c(n(Cc3cnccn3)c1C)C(=O)c1ccccc1C2=O | 0.92
* CCCCc1nc2cc(/C=C/C(=O)NO)ccc2n1CCN(CC)CC | 5.05
* S=C(NCc1ccc2c(c1)OCO2)N1CCN(c2ncnc3c2oc2ccccc23)CC1 | 51.9
* Cc1nnc(C(C)C)n1[C@H]1C[C@H]2CC[C@@H](C1)N2CC[C@H](NC(=O)C1CCC(F)(F)CC1)c1ccccc1 | 10.3
* COc1cc2/c(=N/c3ccc(Br)cc3F)nc[nH]c2cc1OCC1CCN(C)CC1 | 5.04
* CCC(C)(C)C(=O)O[C@H]1C[C@@H](C)C=C2C=C[C@H](C)[C@H](CC[C@@H]3C[C@@H](O)CC(=O)O3)[C@H]21 | 25
